target: yeast α-GLy (α-glucosidase, Sigma G0660) (Saccharomyces cerevisiae, UniProt P53341)
Construct: purchased Sigma G0660
Sequence (P53341 whole entry): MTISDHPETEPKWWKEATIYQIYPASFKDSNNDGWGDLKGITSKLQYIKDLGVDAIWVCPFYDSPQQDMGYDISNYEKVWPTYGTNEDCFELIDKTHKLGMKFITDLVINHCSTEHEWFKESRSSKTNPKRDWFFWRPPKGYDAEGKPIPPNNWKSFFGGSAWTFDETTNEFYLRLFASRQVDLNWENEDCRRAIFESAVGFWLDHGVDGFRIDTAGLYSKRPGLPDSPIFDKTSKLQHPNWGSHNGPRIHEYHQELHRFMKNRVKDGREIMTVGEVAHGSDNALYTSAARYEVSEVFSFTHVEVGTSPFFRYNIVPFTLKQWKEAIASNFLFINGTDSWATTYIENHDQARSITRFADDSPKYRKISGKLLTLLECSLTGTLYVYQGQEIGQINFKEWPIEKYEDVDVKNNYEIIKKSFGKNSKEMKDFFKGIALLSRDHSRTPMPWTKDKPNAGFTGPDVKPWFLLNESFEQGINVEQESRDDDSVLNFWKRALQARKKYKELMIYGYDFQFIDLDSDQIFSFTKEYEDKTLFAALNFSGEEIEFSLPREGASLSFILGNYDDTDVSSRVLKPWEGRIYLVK
experiment_summary: biochemical
Assay type: biochemical
condition_details: IC50 ± SE, α-glucosidase inhibition, yeast α-glucosidase, 37°C, pH 6.8
pIC50: −log10 of the molar value.
measured_quantity: pIC50

Consider the reported pIC50 for these molecules:
Query COC(=O)[C@]1(C)CCC[C@]2(C)[C@H]3C[C@H]4C(C(C)C)=C[C@]3(CC[C@H]21)[C@H]1[C@@H]4[C@@H](OCCC#N)CC[C@@H]1OCCC#N yields pIC50 of < 3.59

Query COC(=O)[C@]1(C)CCC[C@]2(C)[C@H]3C[C@@H]4[C@H]5[C@@H]6CCC(=O)[C@H]5[C@@]3(CC[C@H]21)C[C@@]4(C(C)C)O6 [Compound 3, 1β,13α-epoxy methyldihydroquinopimarate] yields pIC50 of < 3.59

Query CC(C)C1=CC23CCC4C(C)(C(=O)O)CCCC4(C)C2CC1c1c(O)ccc(O)c13 (stereo not drawn) yields pIC50 of < 3.59

Query C#CCOC(=O)C1(C)CCCC2(C)C1CCC13C=C(C(C)C)C(CC12)c1c(O)cc2c(C(=O)OCC)c(C)[nH]c2c13 (stereo not drawn) yields pIC50 of < 3.59

Further cases:
Query COC(=O)[C@]1(C)CCC[C@]2(C)[C@H]3C[C@@H]4[C@H]5[C@@H]6Cc7cn[nH]c7[C@H]5[C@@]3(CC[C@H]21)C[C@@]4(C(C)C)O6 yields pIC50 of < 3.59

Query COC(=O)c1c(C)[nH]c2c3c(c(OCCC#N)cc12)C1CC2C3(C=C1C(C)C)CCC1C(C)(C(=O)OC)CCCC12C (stereo not drawn) yields pIC50 of 5.31

Query CC(C)C1=CC23CCC4C(C)(C(=O)O)CCCC4(C)C2CC1C1=C3C(=O)C=CC1=O (stereo not drawn) [Compound 40, 1a,4a-dehydroquinopimaric acid] yields pIC50 of 5.15

Query CC(C)C1=C[C@@]23CC[C@H]4[C@](C)(CO)CCC[C@]4(C)[C@H]2C[C@@H]1[C@@H]1[C@H]3[C@@H](O)CC[C@@H]1O yields pIC50 of < 3.59

Query CC(C)C1=C[C@@]23CC[C@@H]4[C@](C)(CCC[C@@]4(C)C(=O)O)[C@H]2C[C@@H]1[C@H]1C(=O)CCC(=O)[C@H]13 [Compound 8, 2,3-dihydroquinopimaric acid] yields pIC50 of 4.45

Query COC(=O)[C@]1(C)CCC[C@]2(C)[C@H]3C[C@H]4C(C(C)C)=C[C@]3(CC[C@H]21)[C@@H]1C(=O)CC[C@H](OC(=O)CCCC(=O)O)[C@@H]14 yields pIC50 of < 3.59

Query COC(=O)[C@]1(C)CCC[C@]2(C)[C@H]3C[C@H]4C(C(C)C)=C[C@]3(CC[C@H]21)[C@H]1[C@@H]4[C@@H](OC(=O)c2cccnc2)CC[C@@H]1OC(=O)c1cccnc1 yields pIC50 of < 3.59

* * *

experiment_summary: MTT cytotoxicity assay
condition_details: human, Hep-G2 hepatocellular carcinoma cells (ATCC HB-8065)
# IC50 at 72 h values compiled below
Remember to follow the number with its unit.

Query CC(C)C1=CC23CCC4C(C)(C(=O)O)CCCC4(C)C2CC1c1c(OCCC#N)ccc(OCCC#N)c13 (stereo not shown) [Compound 50] yields IC50 at 72 h of 110 µg/mL

Query C#CCOC(=O)C1(C)CCCC2(C)C1CCC13C=C(C(C)C)C(CC12)c1c(O)cc2c(C(=O)OC)c(C)[nH]c2c13 (stereo not shown) [Compound 45] yields IC50 at 72 h of 47.2 µg/mL

Query Cc1[nH]c2c3c(c(O)cc2c1CO)[C@H]1C[C@@H]2[C@@]4(C)CCC[C@@](C)(CO)[C@@H]4CC[C@@]32C=C1C(C)C [Compound 38] yields IC50 at 72 h of 50.8 µg/mL

Now for a further compound.
Query C#CCOC(=O)C1(C)CCCC2(C)C1CCC13C=C(C(C)C)C(CC12)C1=C3C(=O)C=CC1=O (stereo not shown) [Compound 48] yields IC50 at 72 h of 46 µg/mL
